Test system: aCD3/aCD28-stimulated human PBMCs
experimentNotes: Cytokine production in aCD3/aCD28 stimulated human PBMCs
Format: cell-based
statedConditions: PBMC, enhancement of IL-2 production, 18 h, read-out: Activity Class IL-2
Experimental: In order to determine the immune modulatory effect of compounds of compounds of the present invention in human PBMCs, compounds were assessed in the following assay set-up: […] 1e6 cells/mL were stimulated with soluble anti CD3/CD28 antibodies (1 μg/mL both, clones OKT3 and 28.2) in the presence of described compounds. […] Cytokine concentration in tissue culture supernatants were determined with MSD or HTRF kits (MSD and Cisbio), according to manufacturer's instructions.
pEC50: −log10 of the molar value. Where a name gives a salt, the structure may show the parent alone.
assayEndpoint: pEC50

Record excerpt, results attached:
• CC1(C)CC1NC(=O)c1cc2c(cc1F)S(=O)(=O)C[C@H](N)C(=O)N2Cc1ccc(Cl)cc1.Cl (some centres unmarked) [Example 101, hydrochloride] = 5.30 to 5.80
• CC(C)(O)CNC(=O)c1ccc2c(c1)N(Cc1ccc(Cl)cc1)C(=O)[C@@H](N)CS2 = < 5.30
• N[C@H]1CS(=O)(=O)c2cc(F)c(C(=O)NC3CC3C(F)(F)F)cc2N(Cc2ccc(Cl)cc2)C1=O (some centres unmarked) [Example 127, hydrochloride] = 5.30 to 5.80

Request: For N[C@H]1CS(=O)(=O)c2ccc(C(=O)NCCN3CCOCC3)cc2N(Cc2ccc(Cl)cc2)C1=O , what is its reported pEC50?
Response: < 5.30

Request: For COc1ccc(CNC(=O)c2ccc3c(c2)N(Cc2ccc(Cl)cc2)C(=O)[C@@H](N)CS3(=O)=O)cn1 , what is its reported pEC50?
Response: 5.30 to 5.80

###

Tested on: aCD3/aCD28-stimulated human PBMCs
experimentNotes: Cytokine production in aCD3/aCD28 stimulated human PBMCs
Assay type: cell-based
statedConditions: PBMC, enhancement of IL-2 production, 18 h, read-out: Activity Class IL-2
Structures can show the parent of a compound that is named as a salt.
assayEndpoint: EC50

Record excerpt, results attached:
* N[C@H]1CS(=O)(=O)c2cc(F)c(C(=O)NCCCC(F)(F)F)cc2N(Cc2ccccc2)C1=O [Example 136, hydrochloride] | < 1.58 µM
* C[C@H](NC(=O)c1cc2c(cc1F)S(=O)(=O)C[C@H](N)C(=O)N2Cc1ccc(Cl)cc1)C(F)(F)F.Cl [Example 94, hydrochloride] | > 5.01 µM
* N[C@H]1CS(=O)(=O)c2ccc(C(=O)NCCC(F)(F)F)cc2N(Cc2ccc(Cl)cc2)C1=O | 1.58 to 5.01 µM
* CCCCNC(=O)c1ccc2c(c1)N(Cc1cccc(OC(F)(F)F)c1)C(=O)[C@@H](N)CS2.Cl [Example 9, hydrochloride] | > 5.01 µM
* CCC(C)NC(=O)c1cc2c(cc1F)S(=O)(=O)C[C@H](N)C(=O)N2Cc1ccc(Cl)cc1.Cl (stereo partly drawn) [Example 95, hydrochloride] | 1.58 to 5.01 µM

// moving on: another record for EC50
Request: For N[C@H]1CS(=O)(=O)c2cc(F)c(C(=O)NC3CC(F)(F)C3)cc2N(Cc2ccc(F)cc2)C1=O [Example 140, hydrochloride] , what is its reported EC50?
Response: 1.58 to 5.01 µM
